molecular target: S1P1 (Homo sapiens, UniProt P21453); experiment: Receptor binding assay, [33P]sphingosine 1-phosphate competition, membranes of CHO cells expressing S1P1; conditions: 384 well plate; read-out: S1P1 Binding Ki [M] (384 well plate)
Sequence (P21453 whole entry, species assumed): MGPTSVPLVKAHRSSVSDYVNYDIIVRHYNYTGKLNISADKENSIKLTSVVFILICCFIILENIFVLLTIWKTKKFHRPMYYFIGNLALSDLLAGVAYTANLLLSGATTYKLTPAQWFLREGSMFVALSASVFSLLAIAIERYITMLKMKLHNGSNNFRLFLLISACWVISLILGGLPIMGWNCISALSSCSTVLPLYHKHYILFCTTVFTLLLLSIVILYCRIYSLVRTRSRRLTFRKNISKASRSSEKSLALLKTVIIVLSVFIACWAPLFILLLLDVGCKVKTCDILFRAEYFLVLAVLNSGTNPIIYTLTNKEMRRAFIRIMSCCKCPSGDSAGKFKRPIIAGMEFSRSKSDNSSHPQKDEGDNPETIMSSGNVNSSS
Structures can show the parent of a compound that is named as a salt.
Task for the reader: assign each of the following compounds its reported Ki.
Please give a number only; it is taken to be in M.

Task item: Tell me Ki of Cc1ccccc1-c1ccc(-c2nc(-c3ccc(CN(C)C(C)(C)C(=O)O)c(F)c3)no2)cc1C(F)(F)F when tested on S1P1 (Homo sapiens, UniProt P21453).
Reply: 5.32e-09

Task item: Tell me Ki of Cc1ccccc1-c1ccc(-c2nc(-c3cccc(CCN[C@H](C)C(=O)O)c3)no2)cc1C(F)(F)F when tested on S1P1 (Homo sapiens, UniProt P21453).
Reply: 8.46e-10

Task item: Tell me Ki of Cc1ccccc1-c1ccc(-c2nc(-c3ccc(CCN[C@H](C(=O)O)C(C)C)cc3)no2)cc1C(F)(F)F when tested on S1P1 (Homo sapiens, UniProt P21453).
Reply: 8.12e-09

Task item: Tell me Ki of Cc1ccccc1-c1ccc(-c2nc(-c3ccc(CN(C)C(C)(C)C(=O)O)cc3)no2)cc1C(F)(F)F when tested on S1P1 (Homo sapiens, UniProt P21453).
Reply: 4.13e-09

Task item: Tell me Ki of Cc1ccccc1-c1ccc(-c2nc(-c3ccc(CN[C@@H](C)C(=O)O)cc3)no2)cc1C(F)(F)F when tested on S1P1 (Homo sapiens, UniProt P21453).
Reply: 3.45e-09

Task item: Tell me Ki of Cc1cc(-c2nc(-c3ccc([C@H](C)N[C@@H](C)C(=O)O)cc3)no2)ccc1-c1ccccc1C(F)(F)F (racemic) [Example 24, hydrochloride salt] when tested on S1P1 (Homo sapiens, UniProt P21453).
Reply: 4.29e-09

Task item: Tell me Ki of Cc1ccccc1-c1ccc(-c2nc(-c3ccc([C@@H](C)N(C)CC(=O)O)cc3)no2)cc1C(F)(F)F [Example 36, hydrochloride salt] when tested on S1P1 (Homo sapiens, UniProt P21453).
Reply: 2.55e-09

Task item: Tell me Ki of COCc1cc(-c2nc(-c3ccc(CN(C)C(C)(C)C(=O)O)c(F)c3)no2)ccc1-c1ccccc1C [Example 43, hydrochloride salt] when tested on S1P1 (Homo sapiens, UniProt P21453).
Reply: 2.32e-09

###

molecular target: S1P1 (Homo sapiens, UniProt P21453); assay: Receptor binding assay, [33P]sphingosine 1-phosphate competition, membranes of CHO cells expressing S1P1; details: 384 well plate; read-out: S1P1 Binding Ki [M] (384 well plate)
Structures can show the parent of a compound that is named as a salt.
Parameter: Ki (M)
Please give a number only; it is taken to be in M.

Task item: Using the record for Cc1ccccc1-c1ccc(-c2nc(-c3cccc(CNC4(C(=O)O)CCC4)c3)no2)cc1C(F)(F)F , state its measured Ki.
Reply: 3.18e-10

Task item: Using the record for COCc1cc(-c2nc(-c3ccc([C@@H](C)NCC(=O)O)cc3)no2)ccc1-c1ccccc1C [Example 9, hydrochloride salt] , state its measured Ki.
Reply: 1.11e-09

Task item: Using the record for COCc1cc(-c2nc(-c3ccc(C(C)N(C)[C@@H](C)C(=O)O)cc3)no2)ccc1-c1ccccc1C (some centres unmarked) , state its measured Ki.
Reply: 1.44e-09

Task item: Using the record for Cc1ccccc1-c1ccc(-c2nc(-c3ccc([C@H](C)NCC(=O)O)cc3)no2)cc1C(F)(F)F [Example 21, hydrochloride salt] , state its measured Ki.
Reply: 2.19e-09

Task item: Using the record for CC[C@H](N[C@H](C)c1ccc(-c2noc(-c3ccc(-c4ccccc4C)c(C(F)(F)F)c3)n2)cc1)C(=O)O [Example 10, hydrochloride salt] , state its measured Ki.
Reply: 1.94e-08

Task item: Using the record for Cc1ccccc1-c1ccc(-c2nc(-c3ccc([C@H](C)N[C@H](C)C(=O)O)cc3)no2)cc1C(F)(F)F [Example 17, hydrochloride salt] , state its measured Ki.
Reply: 2.01e-09

Task item: Using the record for Cc1ccccc1-c1ccc(-c2nc(-c3ccc(CNC(C)(CO)C(=O)O)cc3)no2)cc1C(F)(F)F (centres unmarked) , state its measured Ki.
Reply: 4.82e-09

Task item: Using the record for Cc1cc(-c2nc(-c3ccc([C@H](C)N(C)CC(=O)O)cc3)no2)ccc1-c1ccccc1C(F)(F)F [Example 33, hydrochloride salt] , state its measured Ki.
Reply: 5.77e-09

Task item: Using the record for Cc1ccccc1-c1ccc(-c2nc(-c3cccc(CN(C)C(C)(CO)C(=O)O)c3)no2)cc1C(F)(F)F (centres unmarked) , state its measured Ki.
Reply: 4.25e-09

Task item: Using the record for Cc1ccccc1-c1ccc(-c2nc(-c3ccc(CN(C)[C@H](C(=O)O)C(C)C)c(F)c3)no2)cc1C(F)(F)F [Example 13, hydrochloride salt] , state its measured Ki.
Reply: 5.23e-09

Task item: Using the record for Cc1cc(-c2nc(-c3cccc(C(C)NCC(=O)O)c3)no2)ccc1-c1ccccc1C(F)(F)F (centres unmarked) [Example 38, hydrochloride salt] , state its measured Ki.
Reply: 2.84e-09
